tested_on: human cyclin B-CDK1 (Homo sapiens)
Sequence (P06493 whole entry): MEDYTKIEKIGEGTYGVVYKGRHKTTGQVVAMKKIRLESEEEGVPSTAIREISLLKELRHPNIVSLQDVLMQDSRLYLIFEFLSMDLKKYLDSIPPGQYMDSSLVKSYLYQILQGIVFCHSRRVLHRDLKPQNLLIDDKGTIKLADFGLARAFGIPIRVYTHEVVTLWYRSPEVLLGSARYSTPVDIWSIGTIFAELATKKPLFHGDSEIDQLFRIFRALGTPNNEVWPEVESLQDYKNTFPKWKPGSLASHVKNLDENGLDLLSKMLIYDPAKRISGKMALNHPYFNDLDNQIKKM
Sequence (P14635 whole entry partner): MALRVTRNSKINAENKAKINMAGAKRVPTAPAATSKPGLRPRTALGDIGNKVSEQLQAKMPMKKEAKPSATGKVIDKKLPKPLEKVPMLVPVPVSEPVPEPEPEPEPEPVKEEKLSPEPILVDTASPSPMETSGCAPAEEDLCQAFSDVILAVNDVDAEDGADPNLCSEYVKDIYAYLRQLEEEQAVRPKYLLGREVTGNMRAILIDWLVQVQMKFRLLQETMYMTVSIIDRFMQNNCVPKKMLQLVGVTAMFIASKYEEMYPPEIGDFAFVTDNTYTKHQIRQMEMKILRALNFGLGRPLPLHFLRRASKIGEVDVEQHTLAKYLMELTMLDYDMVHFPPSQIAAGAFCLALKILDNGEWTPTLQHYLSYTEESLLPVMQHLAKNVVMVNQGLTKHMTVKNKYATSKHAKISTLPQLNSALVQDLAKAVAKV
assay_notes: FlashPlate kinase assay, cyclin B-CDK1, Rb substrate
assay_setup: recombinant cyclin B-CDK1, Rb phosphorylation, 1 μM ATP
assay_metric: IC50 (nM)

1. Nc1nc(Nc2ccc(OCCN3CCCC3)cc2)sc1C(=O)c1cccc(C2CC2)c1
2. CCNCCOc1ccc(Nc2nc(N)c(C(=O)c3ccc4c(c3)OCO4)s2)cc1
3. Nc1nc(Nc2ccc(OCCN3CCOCC3)cc2)sc1C(=O)c1ccc2c(c1)OCCO2
Arrange the 3 compounds by rising IC50, starting with the smallest. Give me the labels in the order the question wants.
2, 3, 1
(2: 338 nM, 3: 610 nM, 1: 1980 nM)

A. CCc1cccc(C(=O)c2sc(Nc3ccc(OC[C@@H]4CCCN4C)cc3)nc2N)c1
B. CCCc1cc(C(=O)c2sc(Nc3ccc(OCCN(C)C)cc3)nc2N)ccc1O
# returns the entry with the larger IC50; inputs A and B Field: selected label. Fill in the label of the entry you choose.
A
(A: 1890 nM, B: 344 nM)

Every entry's value here was drawn from patent US6818663B2.
